# Test system: Mus musculus
# METHOD: Toxicity in ovariectomized ICR mouse assessed as effect on uterine weight at 110.3 nmol/kg, po treated for 4 weeks measured after 1 day of last treatment
# Format: organism-based
# MEASUREMENT PARAMETERS: in vivo, 24 h
Residues, ends and D or L forms follow the SMILES beside them. *: point of attachment. Succinyl(O17-estradiol) = C[C@]12CC[C@@H]3c4ccc(O)cc4CC[C@H]3[C@@H]1CC[C@@H]2OC(=O)CCC(=O)*; Acetyl(estradiol-3-yloxy) = C[C@]12CC[C@@H]3c4ccc(OCC(=O)*)cc4CC[C@H]3[C@@H]1CC[C@@H]2O
MEASUREMENT TYPE: Activity (g)
Kindly answer with a numeric value in g, unit omitted.

Answered examples (6):
{"MOLECULE": "C[C@]12CC[C@@H]3c4ccc(O)cc4CC[C@H]3[C@@H]1CC[C@@H]2OC(=O)CCC(=O)N[C@@H](CCCNC(=N)N)C(=O)NCC(=O)N[C@@H](CC(=O)O)C(=O)N[C@@H](Cc1ccccc1)C(=O)N[C@@H](CCCNC(=N)N)C(=O)NCC(=O)N[C@@H](CC(=O)O)C(=O)N[C@@H](Cc1ccccc1)C(=O)O ({Succinyl(O17-estradiol)}-RGDFRGDF-OH)", "UNITS LABEL": "g", "Activity": 0.06}
{"MOLECULE": "C[C@]12CC[C@@H]3c4ccc(OCC(=O)N[C@@H](CCCNC(=N)N)C(=O)NCC(=O)N[C@@H](CC(=O)O)C(=O)N[C@@H](CO)C(=O)O)cc4CC[C@H]3[C@@H]1CC[C@@H]2O ({Acetyl(estradiol-3-yloxy)}-RGDS-OH)", "UNITS LABEL": "g", "Activity": 0.064}
{"MOLECULE": "C[C@]12CC[C@@H]3c4ccc(O)cc4CC[C@H]3[C@@H]1CC[C@@H]2OC(=O)CCC(=O)N[C@@H](CCCNC(=N)N)C(=O)NCC(=O)N[C@@H](CC(=O)O)C(=O)N[C@@H](Cc1ccccc1)C(=O)O ({Succinyl(O17-estradiol)}-RGDF-OH)", "UNITS LABEL": "g", "Activity": 0.06}
{"MOLECULE": "CC(C)[C@H](NC(=O)[C@H](CC(=O)O)NC(=O)CNC(=O)[C@H](CCCNC(=N)N)NC(=O)COc1ccc2c(c1)CC[C@@H]1[C@@H]2CC[C@]2(C)[C@@H](O)CC[C@@H]12)C(=O)O ({Acetyl(estradiol-3-yloxy)}-RGDV-OH)", "UNITS LABEL": "g", "Activity": 0.064}
{"MOLECULE": "CC(C)[C@H](NC(=O)[C@H](CC(=O)O)NC(=O)CNC(=O)[C@H](CCCNC(=N)N)NC(=O)CCC(=O)O[C@H]1CC[C@H]2[C@@H]3CCc4cc(O)ccc4[C@H]3CC[C@]12C)C(=O)O ({Succinyl(O17-estradiol)}-RGDV-OH)", "UNITS LABEL": "g", "Activity": 0.064}
{"MOLECULE": "C[C@]12CC[C@@H]3c4ccc(O)cc4CC[C@H]3[C@@H]1CC[C@@H]2OC(=O)CCC(=O)N[C@@H](CCCNC(=N)N)C(=O)NCC(=O)N[C@@H](CC(=O)O)C(=O)N[C@@H](CO)C(=O)N[C@@H](CCCNC(=N)N)C(=O)NCC(=O)N[C@@H](CC(=O)O)C(=O)N[C@@H](CO)C(=O)O ({Succinyl(O17-estradiol)}-RGDSRGDS-OH)", "UNITS LABEL": "g", "Activity": 0.065}

INPUT: Any idea what its Activity is? The molecule is `C[C@]12CC[C@@H]3c4ccc(O)cc4CC[C@H]3[C@@H]1CC[C@@H]2O`
OUTPUT: 0.108
